target: Large T antigen (Simian virus 40); test: SV40 large T antigen inhibitors, biochemical (AID 1903); conditions: SV40 large T antigen ATPase/helicase inhibition assay; at 20 µM; stronger effect = higher value
The campaign covered roughly 310,000 compounds. About 1,200 (0.39%) were called active. These entries were drawn from the full list. Potency and affinity values are given separately.
assayReadout: inhibition (%)
# number only, unit % dropped from output

Example cases with answers are listed next.
- compound: "Cc1nc(-c2ccccc2)cs1"
  unitSymbol: "%"
  experimentalResult: 12.6
- compound: "O=C(O)CCCNC(=O)Cc1ccccc1"
  unitSymbol: "%"
  experimentalResult: 2.55
- compound: "Cn1c(CSCc2ccc(F)cc2)nnc1SCC(=O)N1CCN(c2ccccc2)CC1"
  unitSymbol: "%"
  experimentalResult: 29.3

For Cc1ccc(NC(=O)CCNS(=O)(=O)c2ccc3c(c2)CCC(=O)N3)c(Br)c1 , what is its reported inhibition?
3.77

Thanks! And CC(=O)c1cccc(NC(=O)COC(=O)COc2ccccc2C)c1 ?
2.51

Thanks! And Cc1sc2ncn(CC(=O)NCc3ccccn3)c(=O)c2c1S(=O)(=O)N1CCOCC1 ?
-0.92

Thanks! And Cn1c(CCc2nc3ccccc3[nH]2)n[nH]c1=S ?
9.76

Thanks! And CSc1ncc(Cl)c(C(=O)Nc2ccccc2[N+](=O)[O-])n1 ?
30.7

Thanks! And O=C(Oc1ccc(-c2nnco2)cc1)C1CCN(C(=O)c2ccc(F)cc2)CC1 ?
5.55

Thanks! And O=C(NCc1cccs1)C1CCCN1C(=O)Nc1ccc(F)cc1 (centres undefined) ?
12.8

Thanks! And CC(=O)Nc1ccc(NC(=O)CS(=O)(=O)c2cn(CC(=O)N3CCC(C)CC3)c3ccccc23)cc1 ?
21.1

Thanks! And CC(OC(=O)c1oc2ccccc2c1CSC1CCCCC1)C(=O)NC(N)=O (centres undefined) ?
6.96

Thanks! And Cc1ccc(N2C(=O)C3CCC(C)(C2=O)C3(C)C)cc1 (centres undefined) ?
1.07

Thanks! And O=c1cc(-c2ccc([N+](=O)[O-])cc2)c2ccc(O)cc2o1 ?
9.32

Thanks! And O=C(NCCC1=CCCCC1)Nc1ccc2nsnc2c1 ?
-1.37

Thanks! And O=C(Nc1ccc(N2CCN(c3ccc(O)cc3)CC2)cc1)Oc1ccccc1 ?
16.3

Entry source: PubChem BioAssay AID1903
